- systemName: human JAK1 (a.a. 837-1142) (Homo sapiens)
- Construct: human JAK1 (a.a. 837-1142); His tag (N); made in house; host or cells: insect cells (baculovirus)
- Sequence (P23458 849-1154): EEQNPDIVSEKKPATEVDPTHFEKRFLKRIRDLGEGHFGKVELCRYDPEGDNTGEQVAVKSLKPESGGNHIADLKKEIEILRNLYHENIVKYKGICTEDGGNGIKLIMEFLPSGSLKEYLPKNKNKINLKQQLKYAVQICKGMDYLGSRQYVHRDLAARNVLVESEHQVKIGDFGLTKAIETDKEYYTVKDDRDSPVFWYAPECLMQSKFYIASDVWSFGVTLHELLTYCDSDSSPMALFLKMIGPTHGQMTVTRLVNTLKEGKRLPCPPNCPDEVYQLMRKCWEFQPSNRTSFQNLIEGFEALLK
- protocolText: In vitro JAK kinase assay (HTRF, phosphorylation of a biotinylated peptide), JAK1
- Assay type: biochemical
- conditionLabel: Table D1; read-out: JAK1 IC50
pIC50: −log10 of the molar value. Counter-ions that a name gives are not always drawn.
Entries annotated with measured pIC50
endpointLabel: pIC50

1) O=C(Nc1nccs1)c1cc2cc(c1)OCCSc1cccc(c1)Nc1nc(ncc1Cl)N2 [Example D54, trifluoroacetate] :: 7.74
2) O=C(Nc1ccccc1)Nc1cc2cc(c1)OCCSc1cccc(c1)Nc1nc(ncc1Cl)N2 [Example D65, trifluoroacetate] :: 7.74
3) O=C(C[C@H]1CCCNC1)Nc1ccc2cc1CCc1cncc(c1)Nc1ncc(Cl)c(n1)N2 [Example D195] :: 7.74
4) Cn1cc(C(=O)N2CC[C@@H](CC(=O)Nc3ccc4cc3CCc3cncc(c3)Nc3ncc(Cl)c(n3)N4)C2)cn1 [Example D122, bis(trifluoroacetate)] :: 7.37
5) O=C(c1cccnc1Cl)N1CCC(CCOc2ccc3cc2CCc2cncc(c2)Nc2ncc(Cl)c(n2)N3)CC1 [Example D179, tris(trifluoroacetate)] :: 6.65
6) Clc1cnc2nc1Nc1cccc(c1)OCCc1cc(cc(-c3ccccc3)c1)N2 [Example D28, trifluoroacetate] :: 8.21
7) [O-][S+]1CCOc2cccc(c2)Nc2ncc(Cl)c(n2)Nc2cccc1c2 (stereo not shown) [Example D13, trifluoroacetate] :: 8.44

----------
- systemName: human JAK3 (a.a. 781-1124) (Homo sapiens)
- Construct: JAK3 (a.a. 781-1124); His tag (N); made in house; host or cells: insect cells (baculovirus)
- Sequence (P52333 781-1124): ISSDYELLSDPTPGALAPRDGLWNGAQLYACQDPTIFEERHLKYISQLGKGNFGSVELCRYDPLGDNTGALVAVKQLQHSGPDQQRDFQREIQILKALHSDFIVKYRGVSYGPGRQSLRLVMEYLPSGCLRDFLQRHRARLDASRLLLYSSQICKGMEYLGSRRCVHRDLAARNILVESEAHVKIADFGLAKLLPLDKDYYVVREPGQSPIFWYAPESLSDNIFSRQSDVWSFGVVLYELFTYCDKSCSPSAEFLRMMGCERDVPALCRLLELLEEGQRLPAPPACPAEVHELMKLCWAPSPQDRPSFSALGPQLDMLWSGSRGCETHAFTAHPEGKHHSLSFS
- protocolText: In vitro JAK kinase assay (HTRF, phosphorylation of a biotinylated peptide), JAK3
- Type: biochemical
- conditionLabel: method AA1 (3 μM ATP) or AA2 (1000 μM ATP), not stated per value
pIC50: −log10 of the molar value. Counter-ions that a name gives are not always drawn.
endpointLabel: pIC50

1) Cn1cc(C(=O)N2CCC(CC(=O)Nc3ccc4cc3CCc3cncc(c3)Nc3ncc(Cl)c(n3)N4)CC2)cn1 [Example A129, bis(trifluoroacetate)] :: 6.75
2) CC(C)N1CCC(CC(=O)Nc2ccc3cc2CCc2cncc(c2)Nc2ncc(Cl)c(n2)N3)CC1 [Example A140, tris(trifluoroacetate)] :: 6.93
3) NS(=O)(=O)N1CCC(CC(=O)Nc2ccc3cc2CCc2cncc(c2)Nc2ncc(Cl)c(n2)N3)CC1 [Example A78, bis(trifluoroacetate)] :: 7.92
4) O=C(Nc1ccc2cc1CCc1cccc(c1)Nc1ncc(Cl)c(n1)N2)C1CCN(C(=O)Nc2ccccc2)CC1 [Example A36, trifluoroacetate] :: 7.59
5) N#Cc1ccc(NC(=O)N2CCC(C(=O)Nc3ccc4cc3CCc3cccc(c3)Nc3ncc(Cl)c(n3)N4)CC2)cc1 [Example A37, trifluoroacetate] :: 7.62

----------
Entries annotated with measured ALK % of inhibition at a concentration of 500 nM or 1 mM
- systemName: Recombinant Human Anaplastic Lymphoma Kinase (Homo sapiens, UniProt Q9UM73)
- Construct: purchased Invitrogen, Carlsbad, Calif
- Sequence (Q9UM73 19-1620): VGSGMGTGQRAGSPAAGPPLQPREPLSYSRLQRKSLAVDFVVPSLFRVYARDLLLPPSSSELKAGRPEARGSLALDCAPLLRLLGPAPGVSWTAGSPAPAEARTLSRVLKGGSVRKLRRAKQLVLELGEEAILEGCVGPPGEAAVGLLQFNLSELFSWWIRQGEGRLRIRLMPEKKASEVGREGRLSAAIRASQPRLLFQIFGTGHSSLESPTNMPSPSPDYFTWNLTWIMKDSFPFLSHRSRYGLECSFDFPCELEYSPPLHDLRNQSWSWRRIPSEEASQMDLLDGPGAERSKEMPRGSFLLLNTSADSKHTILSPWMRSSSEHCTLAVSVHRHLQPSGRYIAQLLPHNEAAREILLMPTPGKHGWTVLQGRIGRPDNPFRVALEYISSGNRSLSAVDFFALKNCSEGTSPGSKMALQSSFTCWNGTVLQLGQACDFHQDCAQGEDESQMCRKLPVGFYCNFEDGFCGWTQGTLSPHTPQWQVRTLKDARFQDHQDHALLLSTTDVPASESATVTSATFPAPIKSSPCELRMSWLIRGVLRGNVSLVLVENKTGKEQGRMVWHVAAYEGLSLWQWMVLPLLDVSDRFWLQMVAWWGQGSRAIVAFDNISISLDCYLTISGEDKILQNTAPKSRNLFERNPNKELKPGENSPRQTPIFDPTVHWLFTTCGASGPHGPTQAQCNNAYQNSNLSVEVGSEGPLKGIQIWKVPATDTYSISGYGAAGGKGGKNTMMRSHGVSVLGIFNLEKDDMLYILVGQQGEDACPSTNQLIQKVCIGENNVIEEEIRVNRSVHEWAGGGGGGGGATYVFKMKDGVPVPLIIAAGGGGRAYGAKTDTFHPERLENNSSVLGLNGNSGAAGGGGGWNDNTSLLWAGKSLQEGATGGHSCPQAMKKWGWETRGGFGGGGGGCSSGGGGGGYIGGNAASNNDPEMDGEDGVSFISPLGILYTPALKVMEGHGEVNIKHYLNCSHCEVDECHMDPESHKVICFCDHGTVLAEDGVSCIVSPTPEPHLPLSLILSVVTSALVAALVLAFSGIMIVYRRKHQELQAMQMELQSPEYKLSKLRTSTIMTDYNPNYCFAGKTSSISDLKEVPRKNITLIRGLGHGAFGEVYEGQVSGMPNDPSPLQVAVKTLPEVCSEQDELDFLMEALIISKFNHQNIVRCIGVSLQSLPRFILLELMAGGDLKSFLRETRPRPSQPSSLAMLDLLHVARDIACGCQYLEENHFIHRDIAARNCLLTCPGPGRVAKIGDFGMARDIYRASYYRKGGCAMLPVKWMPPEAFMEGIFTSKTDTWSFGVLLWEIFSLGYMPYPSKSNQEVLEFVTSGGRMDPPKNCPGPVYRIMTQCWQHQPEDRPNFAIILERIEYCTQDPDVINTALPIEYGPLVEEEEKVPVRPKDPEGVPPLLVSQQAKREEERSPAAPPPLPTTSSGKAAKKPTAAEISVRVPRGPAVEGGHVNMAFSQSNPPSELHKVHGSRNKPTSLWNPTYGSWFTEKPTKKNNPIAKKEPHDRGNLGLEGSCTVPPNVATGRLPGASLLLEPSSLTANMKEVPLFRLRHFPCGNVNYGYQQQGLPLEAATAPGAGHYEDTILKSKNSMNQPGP
- protocolText: ALK HTRF kinase assay
- Format: biochemical
- conditionLabel: compound at 500 nM or 1 mM; 90 μM ATP
Where a name gives a salt, the structure may show the parent alone.
endpointLabel: ALK % of inhibition at a concentration of 500 nM or 1 mM (%)

1) Cn1ccc(C(=O)N2CCC(CC(=O)Nc3ccc4cc3CCc3cncc(c3)Nc3ncc(Cl)c(n3)N4)CC2)n1 [Example A130, bis(trifluoroacetate)] :: 26
2) Cc1ccccc1NC(=O)N1CCC(CC(=O)Nc2ccc3cc2CCc2cncc(c2)Nc2ncc(Cl)c(n2)N3)CC1 [Example A149, bis(trifluoroacetate)] :: 35
3) CNC(=O)N1CCC(CC(=O)Nc2ccc3cc2CCc2cncc(c2)Nc2ncc(Cl)c(n2)N3)C1 (stereo not drawn) [Example A93, bis(trifluoroacetate)] :: 30
4) CNC(=O)N1CCC(CC(=O)Nc2ccc3cc2CCc2cncc(c2)Nc2ncc(Cl)c(n2)N3)CC1 [Example A100, bis(trifluoroacetate)] :: 28
5) O=C(CC1CCN(c2ccncc2)CC1)Nc1ccc2cc1CCc1cncc(c1)Nc1ncc(Cl)c(n1)N2 [Example A242, tris(trifluoroacetate)] :: 31
6) O=C(CC1CCN(C(=O)c2cnoc2C2CC2)CC1)Nc1ccc2cc1CCc1cncc(c1)Nc1ncc(Cl)c(n1)N2 [Example A213, bis(trifluoroacetate)] :: 27
7) O=C(CCNC(=O)Nc1ccccc1)Nc1ccc2cc1CCc1cccc(c1)Nc1ncc(Cl)c(n1)N2 [Example A67, trifluoroacetate] :: 40
8) O=C(CC1CCN(C(=O)c2ccccc2)CC1)Nc1ccc2cc1CCc1cncc(c1)Nc1ncc(Cl)c(n1)N2 [Example A192, bis(trifluoroacetate)] :: 31
9) N#Cc1cccnc1N1CCC(CC(=O)Nc2ccc3cc2CCc2cncc(c2)Nc2ncc(Cl)c(n2)N3)CC1 [Example A177, tris(trifluoroacetate)] :: 34
10) O=C(CC1CCN(C(=O)Nc2cccnc2)CC1)Nc1ccc2cc1CCc1cncc(c1)Nc1ncc(Cl)c(n1)N2 [Example A144, bis(trifluoroacetate)] :: 35
11) CC(=O)N1CCC(CC(=O)Nc2ccc3cc2CCc2cccc(c2)Nc2ncc(Cl)c(n2)N3)CC1 [Example A55, trifluoroacetate] :: 23
12) CCNC(=O)N1CCCC(C(=O)Nc2ccc3cc2CCc2cccc(c2)Nc2ncc(Cl)c(n2)N3)C1 (stereo not drawn) [Example A49, trifluoroacetate] :: 24

Attribution: patent US8871753B2
